The reported numbers originate from PubChem BioAssay AID1996.

Provide the recorded solubility kinetic for the entries that follow.
settings: buffer; pH 7.4; 200.0 µM
Give the value in µg/mL but do not write µg/mL after it.

[ask] Which solubility kinetic is reported for this compound? COc1ccccc1CC(=O)Nc1ccc2c(C)cc(=O)oc2c1
[reply] 3.6

[ask] Please answer likewise for COc1ccc(-c2c3c(=O)n(C)c(=O)n(C)c3cn2-c2ccc(O)cc2)cc1
[reply] 20.4

[ask] # iterate: O=C(Nc1ccc2c(c1)OCO2)c1cc(-c2ccccc2Cl)on1
[reply] 1.7

[ask] Next: O=C(CSc1nc(C2CC2)nc2ccccc12)N1CCCCC1
[reply] 46.9

[ask] Next compound: CCC(C)n1c(C)cc(C(N)=O)c1C (configuration not stated)
[reply] 26.8

###

conditions: buffer; pH 7.4; 200.0 µM
OBSERVED PROPERTY: solubility kinetic

[ask] solubility kinetic for CCOC(=O)c1c(C)[nH]c(-c2csc(C)n2)c1C ?
[reply] 27.5 µg/mL

[ask] Same again, this time with Cc1ccsc1CNC1CCCCC1
[reply] 24.1 µg/mL

[ask] What about this compound? COc1ccccc1CN(C)C(=O)COC(=O)c1c(C)noc1C
[reply] > 49.9 µg/mL

[ask] Another compound to check: COc1ccc(OC)c(C(=O)Cn2cnc3ccccc3c2=O)c1
[reply] 0.9 µg/mL

[ask] Now the same for COc1ccc(S(=O)(=O)Nc2ccccn2)cc1C
[reply] > 41.7 µg/mL

[ask] And COCCN(C(=S)Nc1ccccc1C)C(C)c1ccco1 (stereo not drawn) ?
[reply] 45.7 µg/mL

[ask] Another: COc1ncnc2c1oc1nc(C)c3c(c12)CC(C)(C)OC3
[reply] 4.9 µg/mL

[ask] Here is the next compound: O=S(=O)(NCc1cccs1)c1ccc(Cl)s1
[reply] 40.5 µg/mL

[ask] Input C=CCn1cc(C(=O)OCC)c(=O)c2cc(F)c(F)cc21
[reply] > 44 µg/mL

[ask] // query: COc1ccccc1/C=C/C(=O)NC(=S)Nc1ccccn1
[reply] 1.3 µg/mL

[ask] Proceed to O=C(c1cc(-c2ccccc2Cl)on1)N1CCCC1
[reply] > 41.5 µg/mL

[ask] Another compound: CCOc1cccc(C(=O)N/N=C/c2ccoc2)c1
[reply] > 38.7 µg/mL

[ask] Also check COc1ccc2nc(NCc3cccnc3)sc2c1
[reply] > 40.7 µg/mL

###

settings: buffer; pH 7.4; 200.0 µM
OBSERVED PROPERTY: solubility kinetic

[ask] Look up solubility kinetic: O=C(NC1CCCCC1)C1CC(=O)N(c2cccc([N+](=O)[O-])c2)C1 (stereo unspecified)
[reply] 7.8 µg/mL

[ask] Field entry: CC(=O)Nc1ccc(-c2nc3ccc(NC(C)=O)cc3o2)cc1
[reply] 2.2 µg/mL

[ask] Request: CCN1CCCC1CNC(=O)C(=O)Nc1ccccc1 (stereo unspecified)
[reply] > 41.3 µg/mL

[ask] Now the same for Cc1cc(=O)oc2cc(OCCSCCN3CCCCC3)ccc12
[reply] > 52.1 µg/mL

[ask] Also COCCNC(=O)c1cccc(NC(=O)C2=C(C)OCCS2)c1 , if possible.
[reply] > 50.5 µg/mL

[ask] Also check O=C(NCc1ccccn1)Nc1ccc(Cl)cc1
[reply] 34 µg/mL

###

details: buffer; pH 7.4; 200.0 µM
OBSERVED PROPERTY: log10(solubility kinetic) (log10 of the value in µg/mL)
Recall that a logarithmic scale is used here: each number is log10 of solubility kinetic in µg/mL.

[ask] Entry CC1CN(c2ccc([N+](=O)[O-])c(N3CCCCC3)c2)CCN1 (centres undefined) : reported log10(solubility kinetic) = ?
[reply] 1.63

[ask] What would you report for O=C(OCC(=O)N1CCOCC1)c1ccc(Cl)c(S(=O)(=O)N2CCc3ccccc32)c1 ?
[reply] 1.51

[ask] Then O=C(CCNC(=O)c1ccccc1Cl)Nc1ccccc1N1CCCC1 ?
[reply] 1.69

[ask] // same read-out, input: COc1ccc2c(c1)CCc1c(C(=O)NCC(C)C)noc1-2
[reply] 0.18

[ask] How about this compound: O=C(NC1CCSc2ccccc21)c1ccc([N+](=O)[O-])cc1 (centres undefined)
[reply] 0.54

[ask] Field entry: CSc1sc(C#N)c2c1/C(=N\O)CCC2
[reply] 0.00

[ask] Moving on to the next compound: Cc1ccc(Oc2ccc(OCC(=O)NC3CCS(=O)(=O)C3)cc2)cc1 (centres undefined)
[reply] 0.88

[ask] Same question for S=C(c1ccc(-c2cccc(Cl)c2)o1)N1CCCCC1 please.
[reply] 0.79

[ask] How about this compound: Cc1ccc(N2CCN(C(=S)Nc3ccccc3C)CC2)cc1
[reply] -0.22

[ask] Can you handle CCNC(=S)Nc1ccc(NC(=O)c2ccccc2O)cc1 next?
[reply] 1.34

[ask] Follow-up item: COc1ccc(CNCCc2ccc(Cl)cc2Cl)cc1
[reply] 0.32

[ask] Likewise for COc1ccccc1C1CCN(Cc2cccc([N+](=O)[O-])c2)CC1 ?
[reply] 1.21

[ask] Do the same for O=C(NCCCn1ccnc1)c1c(F)cccc1F please
[reply] 1.58

[ask] Query Nc1cccc(Oc2ccc3c(c2)C(=O)NC3=O)c1 next
[reply] 1.56

###

conditions: buffer; pH 7.4; 200.0 µM
// rule not met strictly below 2 µg/mL in solubility kinetic; rule met otherwise

[ask] Hi, just wondering whether O=C(NCc1cccnc1)Nc1ccc(Cl)c(Cl)c1 shows solubility kinetic of 2 µg/mL or higher.
[reply] rule met

[ask] Next compound: CC(=O)c1c(C)nc(-c2ccc(OCC(=O)Nc3ccccc3)cc2)n1O
[reply] rule met

[ask] Same lookup for CN(C)c1cccc(C(=O)NCC(c2ccco2)N(C)C)c1 (stereo unspecified) , please.
[reply] rule met

[ask] Try the compound Cc1c(C(=O)Nc2cccc(S(=O)(=O)N3CCOCC3)c2)oc2ccccc12
[reply] rule met

[ask] Note, next up: C=CCN1C(=O)N(CC=C)c2cccc3cccc1c23
[reply] rule not met

[ask] Same thing, different compound: CCOC(=O)c1csc(NC(=O)c2cc(-c3ccccn3)nc3ccccc23)n1
[reply] rule not met

[ask] Also O=[N+]([O-])c1ccc(N2CCSCC2)cc1O ?
[reply] rule met

[ask] Continue with CCC(=O)c1cn(CC(=O)Nc2ccccc2F)c2ccccc12
[reply] rule met

[ask] Now try CC(C(=O)Nc1ccccc1)C(=O)Nc1ccccc1 .
[reply] rule met

[ask] What do you get for COc1cc(OC)cc(C(=O)OCC(=O)Nc2cccc(S(=O)(=O)NC3=NCCCCC3)c2)c1 ?
[reply] rule met

[ask] Moving on to O=C(Nc1c[nH]c(=O)[nH]c1=O)c1cccc(F)c1
[reply] rule met

###

conditions: buffer; pH 7.4; 200.0 µM
OBSERVED PROPERTY: solubility kinetic (µg/mL)
Write it as a number; the unit µg/mL goes unstated.

[ask] Fill in: solubility kinetic of CN(C(=O)COC(=O)/C=C/c1ccccc1[N+](=O)[O-])c1ccccc1 is ___
[reply] 47.5

[ask] Next up: CCCNC(=O)c1cc2cc([N+](=O)[O-])ccc2s1
[reply] 1.4

[ask] Thanks! And Cc1cccc(NC(=O)c2cc(=O)[nH]c3ccccc23)c1 ?
[reply] 3.1

[ask] And Cc1ccc(NC(=O)C(C)SCc2nc3sc4c(c3c(=O)[nH]2)CCCC4)nc1 (centres undefined) ?
[reply] 29.4

[ask] Then what about the compound COc1cc2[nH]c(C(=O)N(C)Cc3ccccc3)cc2c(OC)c1OC ?
[reply] 35.7

[ask] Would you kindly repeat that for Fc1ccc(-c2nc(-c3cnccn3)no2)c(Cl)c1 ?
[reply] 3.5

[ask] Another: CS/C(=C(/C#N)S(=O)(=O)c1ccc(Cl)cc1)N1CCOCC1
[reply] 49.7

[ask] // same read-out, input: COc1ccc(NC(=O)CN(C)C(=O)CCc2ccccc2)cc1
[reply] 40.7

[ask] Same again, this time with CSc1ccc(S(=O)(=O)N2CC(=O)Nc3ccccc32)cc1
[reply] 14.4

[ask] Please answer likewise for COc1ccc(CN2CCN(C3CCC3)CC2CCO)cc1C (centres undefined)
[reply] 42.3

[ask] Another compound to check: COc1ccc(S(=O)(=O)Nc2cc3c4c(c2)CC(=O)N4CCC3)cc1
[reply] 50

[ask] What about CC1CCN(CCn2c(=S)[nH]c3cc4c(cc3c2=O)OCO4)CC1 ?
[reply] 29.4

[ask] // query: Cc1ccc(C(=O)NCC(=O)Nc2ccncc2)cc1C
[reply] 12.3

[ask] Follow-up entry: FC(F)(F)c1cccc(N2CCN(C3CC4CCC3C4)CC2)c1 (centres undefined)
[reply] 1.4

[ask] Would you mind doing O=c1c2sc3ccccc3c2[nH]c(=S)n1CCN1CCOCC1 as well?
[reply] 49.9

[ask] Same question, CCNC(=O)CSc1nc(-c2ccc(F)cc2)cs1 this time
[reply] 42.8

###

conditions: buffer; pH 7.4; 200.0 µM
Provide the reported solubility kinetic of each item.
Numeric answer only, unit µg/mL assumed.

[ask] So what does the record say about solubility kinetic for Cc1cccc(C(=O)Nc2ccc(NC(=O)CN3CCOCC3)cc2)c1 ?
[reply] 22.7

[ask] Input CC(C)(C)SCCNC(=O)CN1C(=O)c2cccc3cccc1c23
[reply] 2.8

[ask] Similarly, Brc1cccc(C=Nc2cccc3ncccc23)c1 ?
[reply] 12.2

[ask] Moving on to the next molecule: CN(C)C(=O)c1cc(C(=O)c2ccc(F)cc2C(F)(F)F)c[nH]1
[reply] 12.6

[ask] Now try COc1ccccc1NC(=O)COC(=O)c1cc(C)oc1C .
[reply] 6.7

[ask] Try COc1cc(CNC(=O)c2cc3ccccc3oc2=O)cc(OC)c1OC next.
[reply] 4.6

[ask] Can you check CCc1nc(NCCO)c(C#N)c2c1CSC(C)(C)C2 next?
[reply] 41.2
